Target: rBmAChE II (recombinant Bombyx mori type II acetylcholinesterase) (Bombyx mori, UniProt B0FGT2, Y398W)
Construct: gene ace2
Sequence (B0FGT2 entry or part of it Y398W): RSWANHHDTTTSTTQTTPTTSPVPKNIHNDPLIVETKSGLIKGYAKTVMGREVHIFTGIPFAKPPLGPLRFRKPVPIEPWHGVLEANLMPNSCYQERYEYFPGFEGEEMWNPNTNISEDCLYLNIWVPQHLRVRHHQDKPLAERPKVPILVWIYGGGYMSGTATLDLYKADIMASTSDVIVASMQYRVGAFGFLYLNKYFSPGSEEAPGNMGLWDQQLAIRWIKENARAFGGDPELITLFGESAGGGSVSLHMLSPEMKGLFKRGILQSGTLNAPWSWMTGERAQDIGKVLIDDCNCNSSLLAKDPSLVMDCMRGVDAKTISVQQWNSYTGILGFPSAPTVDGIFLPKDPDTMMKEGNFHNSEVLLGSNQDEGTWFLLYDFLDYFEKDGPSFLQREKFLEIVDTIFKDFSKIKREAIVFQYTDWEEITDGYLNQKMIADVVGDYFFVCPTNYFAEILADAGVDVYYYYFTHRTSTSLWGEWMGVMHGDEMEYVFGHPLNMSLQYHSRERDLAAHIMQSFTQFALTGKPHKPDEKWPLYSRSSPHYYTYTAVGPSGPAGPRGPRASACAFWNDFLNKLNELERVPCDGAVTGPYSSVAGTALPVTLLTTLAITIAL
Settings: crude enzyme supernatant; substrate acetylthiocholine iodide (ATChI), DTNB, 50 mM phosphate, 37 °C; covalent
assayMetric: IC50 (nM)
Answer with a number only, understood to be in nM.

# annotated cases, reported IC50 shown
compound=CNC(=O)ON=C(C)SC measured=4380
compound=CNC(=O)Oc1cccc2ccccc12 measured=16

Proceeding to the next compound to report its IC50.
Quick one: IC50 of CNC(=O)Oc1cccc2c1OC(C)(C)C2O (stereo not drawn) [carbofuran-3-hydroxy] ?
246

----------
Biological target: rBmAChE II (recombinant Bombyx mori type II acetylcholinesterase) (Bombyx mori, UniProt B0FGT2, Y398F)
Sequence (B0FGT2 entry or part of it Y398F): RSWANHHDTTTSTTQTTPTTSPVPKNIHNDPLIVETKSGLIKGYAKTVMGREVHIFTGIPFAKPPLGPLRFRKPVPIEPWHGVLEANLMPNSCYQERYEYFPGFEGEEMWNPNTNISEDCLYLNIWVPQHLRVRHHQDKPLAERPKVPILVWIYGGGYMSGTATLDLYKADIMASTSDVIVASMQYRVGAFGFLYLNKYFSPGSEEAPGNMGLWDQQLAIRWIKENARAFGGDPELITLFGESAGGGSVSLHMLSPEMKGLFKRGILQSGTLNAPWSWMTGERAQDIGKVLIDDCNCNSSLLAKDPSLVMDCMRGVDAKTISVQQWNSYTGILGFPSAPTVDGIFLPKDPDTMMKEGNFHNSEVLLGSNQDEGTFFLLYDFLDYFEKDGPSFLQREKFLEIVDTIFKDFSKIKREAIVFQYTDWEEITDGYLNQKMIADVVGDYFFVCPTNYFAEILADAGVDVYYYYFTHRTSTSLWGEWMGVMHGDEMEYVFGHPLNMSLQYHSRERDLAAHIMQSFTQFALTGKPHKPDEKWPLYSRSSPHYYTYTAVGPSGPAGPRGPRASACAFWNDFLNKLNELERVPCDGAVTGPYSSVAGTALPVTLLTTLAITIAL
Settings: crude enzyme supernatant; substrate acetylthiocholine iodide (ATChI), DTNB, 50 mM phosphate, 37 °C; covalent
assayMetric: IC50 (nM)
Answer with a number only, understood to be in nM.

compound=CNC(=O)ON=C(C)SC measured=470
compound=CNC(=O)Oc1cccc2ccccc12 measured=21
compound="CCOC(=O)CC(SP(=S)(OC)OC)C(=O)OCC (stereo not shown)" measured=1130

Proceeding to the next compound to report its IC50.
Quick one: IC50 of CNC(=O)Oc1cccc2c1OC(C)(C)C2O (stereo not shown) [carbofuran-3-hydroxy] ?
43

The measured values listed here are drawn from paper PMC6274772.
